Below, each entry is listed alongside its reported LC retention time.
assay: RP, Waters ACQUITY UPLC BEH C18, 100 × 1 mm, 1.7 µm, 50 °C, 0.3 mL/min, estimated dead time 0.17 min; A: water + 0.1% formic acid + 20 mM ammonium formate; B: methanol + 0.1% formic acid + 20 mM ammonium formate; gradient (min/%B) 0/0 15/100 21/100 22/0 30/0; conditions: stereoisomer not certain
Please give a number only; it is taken to be in min.

Use these answered entries as a reference point.
Task: Reported LC retention time for CC1CC2C3CC(F)C4=CC(=O)C=CC4(C)C3C(O)CC2(C)C1(O)C(=O)CO (stereo not given) : what is it?
Output: 13.2

Task: Reported LC retention time for CCOP(=O)(OCC)Oc1cc(C)nc(C(C)C)n1 : what is it?
Output: 15.7

Task: Reported LC retention time for CC(CCC(=O)O)C1CCC2C3C(O)CC4CC(O)CCC4(C)C3CC(O)C12C (stereo not given) : what is it?
Output: 16.1

Further cases:
Task: Reported LC retention time for O=c1[nH]c2ccccc2s1 [2-hydroxybenzothiazole] : what is it?
Output: 10.6

Task: Reported LC retention time for CC1CCCC(O)CCCC=Cc2cc(O)cc(O)c2C(=O)O1 (stereo not given) : what is it?
Output: 13.4

---

assay: RP, Phenomenex Synergi Polar-RP, 100 × 3 mm, 2.5 µm, 40 °C, 0.4 mL/min, estimated dead time 1.1 min; A: water + 1 mM ammonium fluoride; B: methanol + 1 mM ammonium fluoride; C: acetonitrile; D: 50% isopropanol + 50% acetone; gradient (min/%B/%C/%D) 0/5/0/0 2/5/0/0 8/95/0/0 12/80/15/0 19/25/70/0 19.5/0/25/70 21.5/0/25/70 22.5/0/25/0 23/5/0/0; conditions: stereoisomer not certain
Structures can show the parent of a compound that is named as a salt.
Kind request: treat 10 min as inclusive, so LC retention time at 10 min or higher is rule met, anything lower is rule not met.

Task: Quick check: does N#Cc1nn(-c2c(Cl)cc(C(F)(F)F)cc2Cl)c(N)c1SC(F)(F)F [Fipronil sulfide] have LC retention time greater than or equal to 10 min?
Output: rule met

Task: Quick check: does CCCCC(=O)N(Cc1ccc(-c2ccccc2-c2nn[nH]n2)cc1)C(C(=O)O)C(C)C (stereo not given) have LC retention time greater than or equal to 10 min?
Output: rule not met

Task: Quick check: does Oc1ccc(Cl)cc1Cc1ccccc1 have LC retention time greater than or equal to 10 min?
Output: rule met

Task: Quick check: does O=C1CN(N=Cc2ccc([N+](=O)[O-])o2)C(=O)N1 have LC retention time greater than or equal to 10 min?
Output: rule not met

Task: Quick check: does Oc1ccc(Cl)cc1Cl have LC retention time greater than or equal to 10 min?
Output: rule not met

Task: Quick check: does CC(C)(c1ccccc1)c1ccc(O)cc1 have LC retention time greater than or equal to 10 min?
Output: rule met

Further cases:
Task: Quick check: does O=C(O)C(F)(F)C(F)(F)C(F)(F)C(F)(F)C(F)(F)F have LC retention time greater than or equal to 10 min?
Output: rule not met

Task: Quick check: does O=S(=O)(O)C(F)(F)C(F)(F)C(F)(F)C(F)(F)C(F)(F)C(F)(F)C(F)(F)C(F)(F)F have LC retention time greater than or equal to 10 min?
Output: rule not met

Task: Quick check: does O=[N+]([O-])c1ccc(O)c([N+](=O)[O-])c1 have LC retention time greater than or equal to 10 min?
Output: rule not met

Task: Quick check: does CC(=O)Nc1ccc(O)c(C(=O)O)c1 have LC retention time greater than or equal to 10 min?
Output: rule not met

Task: Quick check: does Cc1cc(Cl)ccc1OC(C)C(=O)O (stereo not given) have LC retention time greater than or equal to 10 min?
Output: rule not met

Task: Quick check: does CC(C)(O)c1ccccc1CCC(SCC1(CC(=O)O)CC1)c1cccc(C=Cc2ccc3ccc(Cl)cc3n2)c1 (stereo not given) have LC retention time greater than or equal to 10 min?
Output: rule met

Task: Quick check: does S=c1nc[nH]c2nc[nH]c12 have LC retention time greater than or equal to 10 min?
Output: rule not met

Task: Quick check: does Cc1ccc(C(C)C)c(O)c1 have LC retention time greater than or equal to 10 min?
Output: rule met

Task: Quick check: does O=C(Nc1ccc(Cl)cc1)Nc1ccc(Cl)c(Cl)c1 have LC retention time greater than or equal to 10 min?
Output: rule met

Task: Quick check: does NS(=O)(=O)C(F)(F)C(F)(F)C(F)(F)C(F)(F)C(F)(F)C(F)(F)C(F)(F)C(F)(F)F [Perfluorooctanesulfonamide] have LC retention time greater than or equal to 10 min?
Output: rule met

Task: Quick check: does CCCCCCCCCCCCOS(=O)(=O)O [Dodecyl sulfate] have LC retention time greater than or equal to 10 min?
Output: rule not met

---

Below, each entry is listed alongside its reported LC retention time.
assay: RP, Phenomenex Synergi Polar-RP, 100 × 3 mm, 2.5 µm, 40 °C, 0.4 mL/min, estimated dead time 1.1 min; A: water + 1 mM ammonium fluoride; B: methanol + 1 mM ammonium fluoride; C: acetonitrile; D: 50% isopropanol + 50% acetone; gradient (min/%B/%C/%D) 0/5/0/0 2/5/0/0 8/95/0/0 12/80/15/0 19/25/70/0 19.5/0/25/70 21.5/0/25/70 22.5/0/25/0 23/5/0/0; settings: stereoisomer not certain
Counter-ions that a name gives are not always drawn.
In your response, the unit should come after the numeric value.

Use these answered entries as a reference point.
Task: Reported LC retention time for CCC1=C(C)CN(C(=O)NCCc2ccc(S(=O)(=O)NC(=O)NC3CCC(C)CC3)cc2)C1=O (stereo not given) [Glimepiride] : what is it?
Output: 11.3 min

Task: Reported LC retention time for CCc1cccc(C)c1N(C(=O)C(=O)O)C(C)COC (stereo not given) : what is it?
Output: 8.42 min

Further cases:
Task: Reported LC retention time for O=C(O)c1cc(Oc2ccc(Cl)cc2Cl)ccc1[N+](=O)[O-] [Bifenox free acid] : what is it?
Output: 9.15 min

Task: Reported LC retention time for COc1ccc2c(c1)c(CC(=O)O)c(C)n2C(=O)c1ccc(Cl)cc1 : what is it?
Output: 10.5 min

Task: Reported LC retention time for O=S(=O)(O)c1ccccc1 : what is it?
Output: 2.01 min

Task: Reported LC retention time for COCCN(C(=O)CS(=O)(=O)O)c1c(C)cccc1C : what is it?
Output: 7.88 min

Task: Reported LC retention time for CCc1cccc(C)c1N(C(=O)CS(=O)(=O)O)C(C)COC (stereo not given) : what is it?
Output: 8.57 min

Task: Reported LC retention time for CCOC(=O)c1ccc(O)cc1 : what is it?
Output: 9.81 min

Task: Reported LC retention time for CCCC1CC(C(=O)NC(C(C)O)C2OC(SC)C(O)C(O)C2O)N(C)C1 (stereo not given) : what is it?
Output: 9.98 min

Task: Reported LC retention time for CCCCCCCCCCOS(=O)(=O)O [Decyl sulfate] : what is it?
Output: 9.26 min

Task: Reported LC retention time for Oc1ccccc1-c1ccccc1 : what is it?
Output: 9.93 min

---

assay: RP, Waters ACQUITY UPLC BEH C18, 100 × 1 mm, 1.7 µm, 50 °C, 0.3 mL/min, estimated dead time 0.17 min; A: water + 0.1% formic acid + 20 mM ammonium formate; B: methanol + 0.1% formic acid + 20 mM ammonium formate; gradient (min/%B) 0/0 15/100 21/100 22/0 30/0; conditions: stereoisomer not certain
endpoint.name: LC retention time (min)
Please give a number only; it is taken to be in min.

Task: Reported LC retention time for CCOc1cc(Oc2ccc(C(F)(F)F)cc2Cl)ccc1[N+](=O)[O-] : what is it?
Output: 16.8

Further cases:
Task: Reported LC retention time for CCOC(=O)c1ccc(N)cc1 : what is it?
Output: 10.5

Task: Reported LC retention time for O=[N+]([O-])Nc1nccn1Cc1ccc(Cl)nc1 : what is it?
Output: 7.92

Task: Reported LC retention time for c1ccc2sc(SSc3nc4ccccc4s3)nc2c1 [2,2-Dibenzothiazoyl disulfide] : what is it?
Output: 17.2

Task: Reported LC retention time for CCN1CCCC1CNC(=O)c1cc(S(N)(=O)=O)ccc1OC (stereo not drawn) [(s)-(-)-Sulpiride] : what is it?
Output: 6.03

Task: Reported LC retention time for Nc1nc(N)nc(-c2ccccc2)n1 : what is it?
Output: 7.87

Task: Reported LC retention time for CCC(C)C1OC2(CCC1C)CC1CC(CC=C(C)C(OC3CC(OC)C(OC4CC(OC)C(O)C(C)O4)C(C)O3)C(C)C=CC=C3COC4C(O)C(C)=CC(C(=O)O1)C34O)O2 (centres undefined) : what is it?
Output: 18.8

All values here come from the RepoRT retention time repository (doi:10.1021/acs.analchem.1c00972).
